Values were extracted from ChEMBL document CHEMBL1145090.

Recorded pIC50 values (Neurotensin receptor type 2 (Homo sapiens, UniProt O95665)) are given below.
Numbered stars: 1 amine (or outer) side, 2 acyl side, 3 side chain; on linkers, the order of the positions; unused ones are H or OH. Square brackets hold non-standard residues; d marks the D form. Peptide text beside a SMILES is read from it. X7 = CCNC(=N)NCCC[C@H](N)C(=O)/N=C(/N)NCCC[C@H](N[*:1])C(=O)[*:2]; Tle = CC(C)(C)[C@H](N)C(=O)O; hLys = NCCCCC[C@H](N)C(=O)O
// returns pIC50 (minus log10 of molar concentration), number only

Solved entries:
CCNC(=N)NCCC[C@H](N)C(=O)/N=C(/N)NCCC[C@H](N)C(=O)N1CCC[C@H]1C(=O)N[C@@H](Cc1ccc(O)cc1)C(=O)N[C@H](C(=O)N[C@@H](CC(C)C)C(=O)O)[C@@H](C)CC (H-[X7]PYIL-OH) ... 9.52
CC[C@H](C)[C@H](NC(=O)[C@H](Cc1ccc(O)cc1)NC(=O)[C@@H]1CCCN1C(=O)[C@@H](N)CCC/N=C(/N)NC(=O)[C@@H](N)CCCN=C(N)N)C(=O)N[C@@H](CC(C)C)C(=O)O ... 9.05
CC[C@H](C)[C@H](NC(=O)[C@H](Cc1ccc(O)cc1)NC(=O)[C@@H]1CCCN1C(=O)[C@@H](N)CCCN=C(N)NC(=O)[C@@H](N)CCCN)C(=O)N[C@@H](CC(C)C)C(=O)O ... 8.52

Return reported pIC50 for target or system Neurotensin receptor type 2 (Homo sapiens, UniProt O95665), item "CC[C@H](C)[C@H](NC(=O)[C@H](Cc1ccc(O)cc1)NC(=O)[C@@H]1CCCN1C(=O)[C@@H](N)CCCNC(=N)NC(=O)[C@@H](N)CCCCC[N+](C)(C)C)C(=O)N[C@@H](CC(C)C)C(=O)O" . 8.51

Return reported pIC50 for target or system Neurotensin receptor type 2 (Homo sapiens, UniProt O95665), item "CC[C@H](C)[C@H](NC(=O)[C@H](Cc1ccc(O)cc1)NC(=O)[C@@H]1CCCN1C(=O)[C@@H](N)CCC/N=C(/N)NC(=O)[C@@H](N)CCCN(C)C)C(=O)N[C@@H](CC(C)C)C(=O)O" . 8.29

Return reported pIC50 for target or system Neurotensin receptor type 2 (Homo sapiens, UniProt O95665), item CC(C)C[C@H](NC(=O)[C@@H](NC(=O)[C@H](Cc1c[nH]c2ccccc12)NC(=O)[C@@H]1CCCN1C(=O)[C@@H](N)CCCN=C(N)NC(=O)[C@@H](N)CCCCCN)C(C)(C)C)C(=O)O (H-R(hLys)PW[Tle]L-OH) . 6.30

Return reported pIC50 for target or system Neurotensin receptor type 2 (Homo sapiens, UniProt O95665), item CC(C)C[C@H](NC(=O)[C@@H](NC(=O)[C@H](Cc1ccc(O)cc1)NC(=O)[C@@H]1CCCN1C(=O)[C@@H](N)CCCN=C(N)NC(=O)[C@@H](N)CCCCCN)C(C)(C)C)C(=O)O (H-R(hLys)PY[Tle]L-OH) . 7.95

Return reported pIC50 for target or system Neurotensin receptor type 2 (Homo sapiens, UniProt O95665), item "CC[C@H](C)[C@H](NC(=O)[C@H](Cc1ccc(O)cc1)NC(=O)[C@@H]1CCCN1C(=O)[C@@H](N)CCC/N=C(/N)NC(=O)[C@@H](N)CCCN1CCN=C1N)C(=O)N[C@@H](CC(C)C)C(=O)O" . 9.64

Return reported pIC50 for target or system Neurotensin receptor type 2 (Homo sapiens, UniProt O95665), item "CC[C@H](C)[C@H](NC(=O)[C@H](Cc1ccc(O)cc1)NC(=O)[C@@H]1CCCN1C(=O)[C@@H](N)CCC/N=C(/N)NC(=O)[C@@H](N)CCCCNC)C(=O)N[C@@H](CC(C)C)C(=O)O" . 8.74

----------
# MEASUREMENT_NOTES: Plasma half life in rat serum
# Type: ADME, organism-based
Square brackets hold non-standard residues; d marks the D form. Peptide text beside a SMILES is read from it. Tle = CC(C)(C)[C@H](N)C(=O)O; hLys = NCCCCC[C@H](N)C(=O)O
MEASURED_PARAMETER: half-life

Solved entries:
CC(C)C[C@H](NC(=O)[C@@H](NC(=O)[C@H](Cc1c[nH]c2ccccc12)NC(=O)[C@@H]1CCCN1C(=O)[C@@H](N)CCCN=C(N)NC(=O)[C@@H](N)CCCCCN)C(C)(C)C)C(=O)O (H-R(hLys)PW[Tle]L-OH) ... > 24 h
CCNC(=N)NCCC[C@H](N)C(=O)N[C@@H](CCCNC(=N)N)C(=O)N1CCC[C@H]1C(=O)N[C@@H](Cc1ccc(O)cc1)C(=O)N[C@H](C(=O)N[C@@H](CC(C)C)C(=O)O)[C@@H](C)CC ... 0.525 h
CC[C@H](C)[C@H](NC(=O)[C@H](Cc1ccc(O)cc1)NC(=O)[C@@H]1CCCN1C(=O)[C@@H](N)CCCN=C(N)NC(=O)[C@@H](N)CCCN)C(=O)N[C@@H](CC(C)C)C(=O)O ... 2.23 h
CC[C@H](C)[C@H](NC(=O)[C@H](Cc1ccc(O)cc1)NC(=O)[C@@H]1CCCN1C(=O)[C@H](CCCNC(=N)N)NC(=O)[C@@H](N)CCCN=C(N)NC)C(=O)N[C@@H](CC(C)C)C(=O)O ... 0.237 h

Next up:
Give the reported value of half-life for this record: "CC[C@H](C)[C@H](NC(=O)[C@H](Cc1ccc(O)cc1)NC(=O)[C@@H]1CCCN1C(=O)[C@@H](N)CCC/N=C(/N)NC(=O)[C@@H](N)CCCCCN(C)C)C(=O)N[C@@H](CC(C)C)C(=O)O" 2.1 h

----------
# ASSAYED_SYSTEM: Sortilin (Homo sapiens)
# Sequence (Q99523 whole entry): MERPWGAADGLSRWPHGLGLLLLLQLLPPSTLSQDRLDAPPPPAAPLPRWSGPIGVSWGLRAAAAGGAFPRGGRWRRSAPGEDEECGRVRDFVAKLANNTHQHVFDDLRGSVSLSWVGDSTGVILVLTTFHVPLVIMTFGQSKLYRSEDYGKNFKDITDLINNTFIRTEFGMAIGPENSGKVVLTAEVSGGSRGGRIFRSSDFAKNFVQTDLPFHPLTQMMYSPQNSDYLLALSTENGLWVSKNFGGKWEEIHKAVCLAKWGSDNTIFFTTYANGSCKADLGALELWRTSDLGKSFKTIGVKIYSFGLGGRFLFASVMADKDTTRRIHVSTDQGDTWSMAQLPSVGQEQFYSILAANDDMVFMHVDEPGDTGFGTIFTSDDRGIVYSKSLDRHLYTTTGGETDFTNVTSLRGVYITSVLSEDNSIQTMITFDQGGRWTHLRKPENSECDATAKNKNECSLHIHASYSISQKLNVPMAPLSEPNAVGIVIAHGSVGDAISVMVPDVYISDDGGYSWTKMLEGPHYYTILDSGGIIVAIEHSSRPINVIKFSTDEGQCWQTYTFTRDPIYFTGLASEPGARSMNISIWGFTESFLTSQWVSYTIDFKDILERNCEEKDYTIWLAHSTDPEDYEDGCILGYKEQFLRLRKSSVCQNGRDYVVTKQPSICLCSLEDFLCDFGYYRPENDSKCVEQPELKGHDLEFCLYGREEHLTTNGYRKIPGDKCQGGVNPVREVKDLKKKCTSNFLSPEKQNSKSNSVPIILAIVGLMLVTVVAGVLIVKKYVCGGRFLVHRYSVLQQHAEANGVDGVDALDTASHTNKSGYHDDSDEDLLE
Square brackets hold non-standard residues; d marks the D form. Peptide text beside a SMILES is read from it. Tle = CC(C)(C)[C@H](N)C(=O)O; hLys = NCCCCC[C@H](N)C(=O)O
MEASURED_PARAMETER: pIC50
// returns pIC50 (minus log10 of molar concentration), number only

Solved entries:
CC[C@H](C)[C@H](NC(=O)[C@H](Cc1ccc(O)cc1)NC(=O)[C@@H]1CCCN1C(=O)[C@@H](N)CCCN=C(N)NC(=O)[C@@H](N)CCCNC)C(=O)N[C@@H](CC(C)C)C(=O)O ... 6.19
CC[C@H](C)[C@H](NC(=O)[C@H](Cc1ccc(O)cc1)NC(=O)[C@@H]1CCCN1C(=O)[C@@H](N)CCC/N=C(/N)NC(=O)[C@@H](N)CCCCCN(C)C)C(=O)N[C@@H](CC(C)C)C(=O)O ... 6.15

Next up:
Give the reported value of pIC50 for this record: CC(C)C[C@H](NC(=O)[C@@H](NC(=O)[C@H](Cc1c[nH]c2ccccc12)NC(=O)[C@@H]1CCCN1C(=O)[C@@H](N)CCCN=C(N)NC(=O)[C@@H](N)CCCCCN)C(C)(C)C)C(=O)O (H-R(hLys)PW[Tle]L-OH) 4.27
